- Protocol text: Plasma pharmacokinetics after multiple ascending doses (MAD), phase 1
- Type: in vivo, human (healthy adult participants)
- Condition: human, plasma, iv, 150 mg, First q6h dose (day 1), 14-day MAD 150 mg q6h × 14, non-Chinese, n = 10, arithmetic mean ± SD; read-out: AUC0-6h
Where a SMILES comes first, the peptide text is derived from it. Bridges are numbered along the chain shown (N, C = ends). [ ]: non-standard residue; d: D form. The star is where a group is joined. X1 = O=C(c1ccc(Cl)cc1Cl)*; Dab = NCC[C@H](N)C(=O)O; Abu = CC[C@H](N)C(=O)O; Dap = NC[C@H](N)C(=O)O

>  <Molecule>
CC[C@@H]1NC(=O)[C@@H](CC(C)C)NC(=O)[C@H](CCN)NC(=O)[C@@H](NC(=O)[C@H](CN)NC(=O)[C@@H](NC(=O)[C@H](CCN)NC(=O)c2ccc(Cl)cc2Cl)[C@@H](C)O)CCNC(=O)[C@H]([C@@H](C)O)NC(=O)[C@H](CCN)NC(=O)[C@H](CCN)NC1=O [BRII-693] (X1-[Dab]T[Dap][Dab][Dab][dL][Abu][Dab][Dab]T; lactam 4-C; N-terminus assumed)

>  <AUC(0-t)>
25200 ng·h/mL

$$$$
